assay: qHTS of pediatric cancer cell lines to identify multiple opportunities for drug repurposing: Primary screen for Rh18 cells (AID 1347102); settings: Rh18 rhabdomyosarcoma viability, CellTiter-Glo luminescence, 48 h; series mostly up to 46 µM; also: nearly all actives have a fitted effect of over 65% in size
Inconclusive results are not listed. Activity calls are given as the source filed them. Calls follow the shape of the dose curve; as a rule, active = well fitted cell-killing curve with a large enough effect; inconclusive = small, poorly fitted or top-dose-only effect; inactive = flat fitted curve, though single readings scatter.
Labels: active, inactive

| molecule | cat |
| --- | --- |
| C=C1C[C@H]2[C@H]3CCC(=O)[C@@]3(C)CC[C@@H]2[C@@]2(C)C=CC(=O)C=C12 | inactive |
| c1cc2ccc3cccc4ccc(c1)c2c34 | inactive |
| CC(C)(O)C=CC(=O)[C@](C)(O)[C@H]1[C@H](O)C[C@]2(C)[C@@H]3CC=C4[C@@H](C=C(O)C(=O)C4(C)C)[C@]3(C)C(=O)C[C@@]12C | active |
| C#CC1(O)CCC2C3CCC4=CC(=O)CCC4(C)C3CCC21C (stereo not given) | inactive |
| Nc1ccc(Cl)cc1 | inactive |
| CC(=O)OCC1=C(C(=O)O)N2C(=O)[C@@H](N)[C@@H]2SC1 | inactive |
| COc1cccc2c1[C@]13CCN(CC4CC4)[C@H](C2)[C@]1(OC)CCC(=O)C3 | inactive |
| O=C(Oc1ccc([N+](=O)[O-])cc1)N1CCN(Cc2cccc(Oc3ccccc3)c2)CC1 | inactive |
| Clc1ccccc1C(c1ccccc1)(c1ccccc1)n1cccn1 | inactive |
| O=[N+]([O-])c1ccc([As](=O)(O)O)cc1 | inactive |
| S=C(SSC(=S)N1CCCCC1)N1CCCCC1 | active |
| CC=C(C)C(=O)N[C@@H](c1ccccc1)[C@@H](O)C(=O)O[C@H]1C[C@@]2(O)[C@@H](OC(=O)c3ccccc3)[C@@H]3[C@]4(OC(C)=O)CO[C@@H]4C[C@H](O)[C@@]3(C)C(=O)[C@H](OC(C)=O)C(=C1C)C2(C)C | inactive |
| C[C@]12CC[C@H](O)CC1=CC[C@H]1[C@H]3CCC(=O)[C@@]3(C)CC[C@@H]12 | inactive |
| CC(C)NCC(O)c1ccc([N+](=O)[O-])cc1 (stereo not given) | inactive |
| COc1ccc2c(c[n+](C)c3c4cc5c(cc4ccc23)OCO5)c1OC | active |
| CC(C)(C)C(O)C(Oc1ccc(Cl)cc1)n1cncn1 (stereo not given) | inactive |
| COc1ccc2c(c1)[C@]13CCCCC1C(C2)N(C)CC3 (stereo not given in full) | inactive |
| CCCN1CCO[C@@H]2c3cc(O)ccc3OC[C@@H]21 | inactive |
| Nc1c(Cl)c(Cl)c(Cl)c(Cl)c1Cl | inactive |
| C[C@]12CC[C@@H]3[C@@H](CCC4=CC(=O)CC[C@@H]43)[C@@H]1CC[C@@H]2OC(=O)CCc1ccccc1 | inactive |
